Recorded Corn plant response rating (0 to 100 scale) by entry
- Tested on: corn (Zea mays)
- protocol: Test A postemergence application, visual injury rating 0-100
- Format: in vivo
- test_conditions: Postemergence, 31 g ai/ha, greenhouse 10 days; 0 no effect, 100 complete control
metric: Corn plant response rating (0 to 100 scale)

compound	target_desc	value
CCS(=O)(=O)NC(=O)C1C=CC(NC(=O)C2(C)CN(c3cc(Cl)cc(Cl)c3)C(=O)O2)C1 (stereo not shown) [Compound 83]	corn (Zea mays)	20
CC1(C(=O)NC2C=CC(C(=O)NS(=O)(=O)c3ccccc3)C2)CN(c2cc(Cl)cc(Cl)c2)C(=O)O1 (stereo not shown) [Compound 86]	corn (Zea mays)	90
CC(C)OC(=O)C1=CCC(NC(=O)C2(C)CN(c3cc(Cl)cc(Cl)c3)C(=O)O2)C1 (stereo not shown) [Compound 70]	corn (Zea mays)	90
COC(=O)COC(=O)C1C=CC(NC(=O)C2(C)CN(c3cc(Cl)cc(Cl)c3)C(=O)O2)C1 (stereo not shown) [Compound 65]	corn (Zea mays)	100
CC(=O)COC(=O)C1C=CC(NC(=O)C2(C)CN(c3cc(Cl)cc(Cl)c3)C(=O)O2)C1 (stereo not shown) [Compound 67]	corn (Zea mays)	100
CC1(C(=O)NC2CC=C(C(=O)O)C2)CN(c2cc(Cl)cc(Cl)c2)C(=O)O1 (stereo not shown) [Compound 72]	corn (Zea mays)	100
CC1(C(=O)NC2C=CC(C(=O)NS(=O)(=O)C3CC3)C2)CN(c2cc(F)cc(F)c2)C(=O)O1 (stereo not shown) [Compound 87]	corn (Zea mays)	80

* * *

- Test system: wheat (Triticum aestivum)
- protocol: Test A postemergence application, visual injury rating 0-100
- Type: in vivo
- test_conditions: 31 g ai/ha, postemergence, 10 days, 0 = no effect, 100 = complete control
Recorded Wheat plant response rating (0-100) by entry

molecule	Wheat plant response rating (0-100)
COC(=O)C1=CCC(NC(=O)C2(C)CN(c3cc(F)cc(F)c3)C(=O)O2)C1 (single isomer, unassigned) [Compound 20]	0
CC1(C(=O)NC2C=CC(C(=O)OCc3ccc(F)cc3)C2)CN(c2cc(F)cc(F)c2)C(=O)O1 (stereo not shown)	90
CC1(C(=O)NC2CC=C(C(=O)O)C2)CN(c2cc(F)cc(F)c2)C(=O)O1 (stereo not shown)	90
CC(C)OC(=O)C1=CCC(NC(=O)C2(C)CN(c3cc(F)cc(F)c3)C(=O)O2)C1 (stereo not shown)	90
CC(C)OC(=O)C1CC(NC(=O)C2(C)CN(c3cc(F)cc(F)c3)C(=O)O2)CO1 (stereo not shown)	80
CC1(C(=O)NC2CC=C(C(=O)OCC(F)(F)F)C2)CN(c2cc(F)cc(F)c2)C(=O)O1 (single isomer, unassigned)	30
COC(=O)C1C=CC(NC(=O)C2(C)CN(c3cc(F)cc(Cl)c3)C(=O)O2)C1 (stereo not shown)	90

* * *

- System: ryegrass, Italian (italian ryegrass, Lolium multiflorum)
- protocol: Test A preemergence soil spray, visual injury rating 0-100
- Format: in vivo
- test_conditions: 16 g ai/ha, 0 to 100 scale, 10 days
Recorded Ryegrass, Italian plant response rating by entry
metric: Ryegrass, Italian plant response rating

molecule	value
CC(C)COC(=O)C1=CCC(NC(=O)C2(C)CN(c3cc(Cl)cc(Cl)c3)C(=O)O2)C1 (stereo not drawn) [Compound 156]	0
COC(=O)COC(=O)C1=CCC(NC(=O)C2(C)CN(c3cc(Cl)cc(Cl)c3)C(=O)O2)C1 (stereo not drawn)	0
COC(=O)C1CC(NC(=O)C2(C)CN(c3cc(F)cc(F)c3)C(=O)O2)C1 (stereo not drawn) [Compound 117]	0
